// TGI lookup, one value per entry
# Tested on: UO-31 renal
# Assay Explanation: NCI tumour cell line growth inhibition, 48 h

Examples with answers:
INSERT INTO results (compound, result) VALUES
  ('COC(=O)c1ccccc1C1CN=NC12Cc1c(C)ccc(C)c1C2=O (stereo not drawn)', '> 100 µM'),
  ('CCOC(=O)c1csc(NC(=O)C(C)N2CCOCC2)n1 (stereo not drawn)', '> 100 µM');

Task item: Name the reported TGI value associated with the compound COc1cc(CCc2ccc(OC(C)=O)cc2)cc(OC)c1OC
Reply: > 100 µM

Task item: Entry C=C(Cn1c2ccccc2c(=O)c2ccccc21)c1ccc(C(=O)Nc2ccccc2N)cc1 please
Reply: > 100 µM

Task item: Entry O=c1[nH]c2ccc([N+](=O)[O-])c(Cl)c2c2ccccc12 please
Reply: 21.2 µM

Task item: Entry Cc1ccccc1Nc1nc2ccccc2nc1NS(=O)(=O)c1ccccc1 please
Reply: > 100 µM

Task item: Entry CCc1cc2c(c3c1CCCC3=O)CC1(C2)Cc2cc(CC)c3c(c2C1)C(=O)CCC3 please
Reply: > 100 µM

Task item: Entry CC[C@]1(Cc2ccc(OC)c(OC)c2)C=[N+]([O-])O[C@H](OC2CCCC2(c2ccccc2)c2ccccc2)[C@@H]1OC(=O)C(C)(C)C (stereo partly drawn) please
Reply: 3.97 µM

----------
// TGI lookup, one value per entry
# Tested on: SW-620 colon
# Assay Explanation: NCI tumour cell line growth inhibition, 48 h

Examples with answers:
INSERT INTO assay_data (compound, system_under_test, measured_property, result) VALUES
  ('CC1CC(C)C(C(O)CC2CC(=O)N(c3ccccc3)C(=O)C2)C(O)C1 (configuration not stated)', 'SW-620 colon', 'TGI', '> 100 µM'),
  ('Oc1ccccc1C=Nc1nc(OCc2ccccc2)nc2[nH]ncc12', 'SW-620 colon', 'TGI', '76.1 µM'),
  ('O=c1c2cc(I)ccc2nc(-c2cccs2)n1O', 'SW-620 colon', 'TGI', '> 100 µM'),
  ('COc1ccc(-c2cc(-c3ccco3)c(C#N)c(=O)[nH]2)cc1', 'SW-620 colon', 'TGI', '> 100 µM');

Task item: Name the reported TGI value associated with the compound CC(=O)NN(c1ccccc1)C1CCN(c2ccccc2)N1C(C)=O (configuration not stated)
Reply: > 10 µM

Task item: Entry N/C(=N\C(N)=N\c1nc2ccccc2s1)c1cnccn1 please
Reply: > 100 µM

Task item: Entry COC(=O)[C@]1(C)CCC[C@]2(C)[C@@H]1CCC13C[C@@H](C=CO1)[C@@H](C)CC32O (some centres not stated) please
Reply: > 100 µM

Task item: Entry Oc1ccc(SCc2cc(O)ccc2O)cc1 please
Reply: > 62.8 µM

Task item: Entry Clc1ccc(C2=NCON=C2c2ccc(Cl)cc2)cc1 please
Reply: 50.1 µM

----------
// GI50 lookup, one value per entry
# Tested on: HCC-2998 colon
# Assay Explanation: NCI tumour cell line growth inhibition, 48 h

INSERT INTO results (molecule, result) VALUES
  ('COc1cc(/C=C\c2cc(OC)c(OC)c(OC)c2)cc(NS(=O)(=O)c2ccc(Cl)cc2)c1OC', '1.98 µM'),
  ('C=C1CC/C=C(\C)CC[C@H](C(=C)C)[C@@H](O)/C=C(/CO)CCC1O (stereo partly specified)', '> 100 µM'),
  ('COc1ccc(OCC(O)CN2CCN(c3ccc(Cl)cc3)CC2)cc1 (stereo unspecified)', '> 100 µM'),
  ('O=C1CCS/C(=N/S(=O)(=O)c2ccc(N3N=C4c5ccccc5CC4C3c3cccs3)cc2)N1Cc1ccccc1 (stereo unspecified)', '17.9 µM');

Task item: State its GI50 on HCC-2998 colon: C=C(Cl)[C@@](Cl)(CBr)CC[C@@H](Br)C(C)(C)Cl
Reply: 1.27 µM

Task item: Entry CC1=C2[C@@H](CC1)[C@]1(C)O[C@@](C3CC3)(C[C@H]1OC(=O)CO)[C@H]2OC(=O)/C=C/c1ccccc1 please
Reply: 16.9 µM
